molecular target: EGFR S768I (Homo sapiens, UniProt P00533, S768I); construct: expressed in transfected cells; host or cells: Ba/F3; assay: Ba/F3 drug screening, Cell Titer Glo, IC50 Mut/WT; assay type: cell-based; details: PACC; S768I; Ba/F3; 72 hours
METRIC_NAME: ratio of IC50 for cells with mutant EGFR to IC50 for cells with wildtype EGFR (Mut/WT)

INSERT INTO results (smiles_code, experimental_result) VALUES
  ('CNC(=O)CN1CCC(Oc2cc3c(Nc4cccc(Cl)c4F)ncnc3cc2OC)CC1', 0.1883);

a = COc1cc2ncnc(Nc3ccc(F)c(Cl)c3)c2cc1NC(=O)/C=C/CN1CCCCC1
b = COc1cc2ncnc(Nc3cccc(Cl)c3F)c2cc1OC(=O)N1CCN(C)C[C@H]1C
c = CN(C)C/C=C/C(=O)Nc1cc2c(Nc3ccc(Cl)c(Br)c3)ncnc2cn1
# input Sort the 3 compounds by ratio of IC50 for cells with mutant EGFR to IC50 for cells with wildtype EGFR (Mut/WT); largest first, smallest last. List labels; respect the requested ordering.
# output a, c, b
(a: 17.66, c: 0.3863, b: 0.145)
